biological target: furin, P09958; test: furin cleavage Z-score vs untreated control; higher = more cleavage, active = 3.5 or more, inactive = 1 or less, 8 variable residues between constant flanks; conditions: 15 min;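 note: purified furin at 1:10 enzyme:substrate in 50 mM HEPES pH 7.5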
Sequence (P09958 whole entry): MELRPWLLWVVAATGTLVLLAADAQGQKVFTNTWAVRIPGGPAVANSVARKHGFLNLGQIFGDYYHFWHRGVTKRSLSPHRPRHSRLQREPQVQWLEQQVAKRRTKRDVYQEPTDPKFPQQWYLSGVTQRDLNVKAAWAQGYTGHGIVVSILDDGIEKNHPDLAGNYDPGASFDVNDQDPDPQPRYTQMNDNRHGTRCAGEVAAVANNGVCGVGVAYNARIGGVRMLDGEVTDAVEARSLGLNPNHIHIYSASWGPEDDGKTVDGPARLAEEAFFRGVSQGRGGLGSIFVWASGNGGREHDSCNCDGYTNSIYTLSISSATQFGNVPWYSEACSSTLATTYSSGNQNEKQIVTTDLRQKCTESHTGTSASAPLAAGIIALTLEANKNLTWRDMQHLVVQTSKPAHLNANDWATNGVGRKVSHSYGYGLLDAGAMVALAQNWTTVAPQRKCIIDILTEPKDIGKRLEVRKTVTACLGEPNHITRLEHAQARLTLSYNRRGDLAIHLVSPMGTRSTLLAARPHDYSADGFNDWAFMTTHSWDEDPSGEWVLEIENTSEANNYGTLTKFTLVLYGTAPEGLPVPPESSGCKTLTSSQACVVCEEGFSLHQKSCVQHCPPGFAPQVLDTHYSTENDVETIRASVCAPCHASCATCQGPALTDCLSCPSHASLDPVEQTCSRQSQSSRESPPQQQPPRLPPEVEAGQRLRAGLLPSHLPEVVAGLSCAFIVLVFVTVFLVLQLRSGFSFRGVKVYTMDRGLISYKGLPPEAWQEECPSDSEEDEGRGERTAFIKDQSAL
The other results are listed elsewhere or left out. How many sequences the whole screen found active is unknown.
measured_quantity: furin cleavage Z-score
In your answer, state the number alone without any accompanying words.

Some solved entries appear below for comparison.
>>> meas_value("CAVCPRMKRKAGNASASA [FS-385]")
7.19
>>> meas_value("CACLSRRRRAAGNASASA [FS-582]")
10.1
>>> meas_value("CAGARRAKRKAGNASASA [FS-1326]")
5.92

Continue with the sequence presented below.
Look at this sequence and give its reported furin cleavage Z-score. CALERRSVYTAGNASASA [FS-1986]
0.537
